Source: ChEMBL document CHEMBL1121726

As shown below, each of these compounds has a reported ILS value.
Tested on: L1210
procedureText: Increase in life span of tumor L1210 leukemic mice 1-5 days after 400 mg/kg administered
Format: functional, Mus musculus
propertyLabel: ILS

- O=c1[nH]cnc2c1cnn2[C@@H]1O[C@H](CO)[C@@H](O)[C@H]1O: 2
- OC[C@H]1OC(n2ncc3c(Nc4ccccc4)ncnc32)[C@H](O)[C@@H]1O (some centres undefined): -4
- OC[C@H]1OC(n2ncc3c(S)ncnc32)[C@H](O)[C@@H]1O (some centres undefined): -6
- COC(=N)c1nn(C2O[C@H](CO)[C@@H](O)[C@H]2O)c2ncnc(N)c12 (some centres undefined): 64
